- test-description: in vivo
- condition-parameters: acute (short-term) toxicity
property-measured: LD50

* CC(CC(=O)c1ccc(-c2ccc(F)cc2F)cc1)C(=O)O (stereo not drawn) [Compound 2] | 500 mg/kg
* CC(CC(=O)c1ccc(-c2ccc(F)cc2)cc1)C(=O)O (stereo not drawn) [Compound 3] | 500 mg/kg
* CC(CC(=O)c1ccc(-c2ccc(Cl)cc2Cl)cc1)C(=O)O (stereo not drawn) [Compound 1] | 450 mg/kg

====

- System: Carrageenin edema
- test-description: Carrageenin edema
- Format: in vivo
- condition-parameters: 25 mg/kg po, single dose, 24 hr; bracketed values not significant
property-measured: Carrageenin % inhibition 24 hr (%)

* CC(CC(=O)c1ccc(-c2ccc(F)cc2)cc1)C(=O)O (stereo not shown) | 21
* CC(CC(=O)c1ccc(-c2ccc(F)cc2F)cc1)C(=O)O (stereo not shown) | 61
* O=C(O)CCC(=O)c1ccc(-c2ccccc2)cc1 | 14
* CC(CC(=O)c1ccc(-c2ccc(Cl)cc2Cl)cc1)C(=O)O (stereo not shown) | 54
